Source listed as paper PMC8346053.

Target: recombinant HcProRS (Homo sapiens)
Construct: SUMO (N, cleaved yes); made in house; host or cells: E. coli Rosetta 2 (DE3) pLysS
Sequence (P07814 1001-1512): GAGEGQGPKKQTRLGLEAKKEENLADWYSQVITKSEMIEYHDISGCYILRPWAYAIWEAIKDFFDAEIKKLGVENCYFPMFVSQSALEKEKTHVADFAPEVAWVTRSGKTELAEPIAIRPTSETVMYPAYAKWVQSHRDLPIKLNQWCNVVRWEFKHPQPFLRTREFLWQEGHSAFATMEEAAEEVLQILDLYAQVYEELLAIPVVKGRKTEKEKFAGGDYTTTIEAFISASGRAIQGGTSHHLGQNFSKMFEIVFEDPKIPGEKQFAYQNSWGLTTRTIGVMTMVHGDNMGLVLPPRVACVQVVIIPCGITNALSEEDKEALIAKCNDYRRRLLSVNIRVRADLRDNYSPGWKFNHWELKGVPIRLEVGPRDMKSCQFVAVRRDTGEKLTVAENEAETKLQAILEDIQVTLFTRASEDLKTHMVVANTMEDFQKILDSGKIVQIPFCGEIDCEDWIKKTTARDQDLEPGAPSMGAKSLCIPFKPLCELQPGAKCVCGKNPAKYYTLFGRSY
Assay: fluorescence-based thermal shift assay (TSA)
Assay type: binding
Settings: 100 µM compound, 3.45 µM HcProRS, 1 mM Pro; reference Tm with Pro only 60.20
Exercise: for every item that follows, state its recorded Tm with 1 mM L-Pro.
One number for each entry, in °C.

Below, 5 compounds whose answers are already recorded.
| compound | unit_abbreviation | Tm with 1 mM L-Pro |
| --- | --- | --- |
| NC(=O)c1nccnc1NCc1ccccc1Cl | °C | 62.47 |
| O=C(NC1Cc2ccccc2C1)c1nccnc1NC(=O)C1CCCCC1 [2a, reference compound] | °C | 73.35 |
| NC(=O)c1nccnc1NCc1ccccc1F | °C | 60.30 |
| NC(=O)c1nccnc1NCc1ccccc1 | °C | 59.36 |
| COc1ccc(CNc2nccnc2C(N)=O)cc1 | °C | 58.33 |

Report Tm with 1 mM L-Pro for every entry below.
1. Nc1nccnc1C(=O)O [3-NH2-POA, 3-aminopyrazinoic acid, reference compound]
2. O=C(NCc1ccc(F)cc1)c1nccnc1NCc1ccc(F)cc1
3. O=C(O)c1cnccn1 [POA, pyrazinoic acid, reference compound]
4. Cc1ccccc1CNC(=O)c1nccnc1NCc1ccccc1C
5. O=C(NCc1ccccc1Cl)c1nccnc1NCc1ccccc1Cl
6. Cc1ccccc1CNc1nccnc1C(N)=O

Key:
1. 59.50
2. 58.21
3. 59.06
4. 62.72
5. 64.92
6. 63.33

Exercise: # lookup: Tm with 1 mM L-Pro of NC(=O)c1nccnc1NCc1cccc(Cl)c1
Key: 60.42

* * *

Target: recombinant HcProRS (Homo sapiens)
Construct: SUMO (N, cleaved yes); made in house; host or cells: E. coli Rosetta 2 (DE3) pLysS
Test: fluorescence-based thermal shift assay (TSA)
Assay type: binding
Conditions: 100 µM compound, 3.45 µM HcProRS, 1 mM Pro; reference Tm with Pro only 60.20
Kindly apply the following: Fulfilled if Tm with 1 mM L-Pro is less than 60 °C, Not fulfilled in every other case.

| smiles_repr | class |
| --- | --- |
| NC(=O)c1nccnc1NCc1ccccc1C(F)(F)F | Not fulfilled |

Pending compound:
Exercise: Report whether reported Tm with 1 mM L-Pro is lower than 60 °C (strictly) for NC(=O)c1nccnc1NCc1ccc(Cl)c(Cl)c1
Key: Fulfilled
